- study-system: ROCK1 (Homo sapiens)
- Construct: purchased DiscoverX (KINOMEscan KdELECT service); host or cells: E. coli BL21-derived (T7 phage) or HEK-293
- Sequence (Q13464 whole entry): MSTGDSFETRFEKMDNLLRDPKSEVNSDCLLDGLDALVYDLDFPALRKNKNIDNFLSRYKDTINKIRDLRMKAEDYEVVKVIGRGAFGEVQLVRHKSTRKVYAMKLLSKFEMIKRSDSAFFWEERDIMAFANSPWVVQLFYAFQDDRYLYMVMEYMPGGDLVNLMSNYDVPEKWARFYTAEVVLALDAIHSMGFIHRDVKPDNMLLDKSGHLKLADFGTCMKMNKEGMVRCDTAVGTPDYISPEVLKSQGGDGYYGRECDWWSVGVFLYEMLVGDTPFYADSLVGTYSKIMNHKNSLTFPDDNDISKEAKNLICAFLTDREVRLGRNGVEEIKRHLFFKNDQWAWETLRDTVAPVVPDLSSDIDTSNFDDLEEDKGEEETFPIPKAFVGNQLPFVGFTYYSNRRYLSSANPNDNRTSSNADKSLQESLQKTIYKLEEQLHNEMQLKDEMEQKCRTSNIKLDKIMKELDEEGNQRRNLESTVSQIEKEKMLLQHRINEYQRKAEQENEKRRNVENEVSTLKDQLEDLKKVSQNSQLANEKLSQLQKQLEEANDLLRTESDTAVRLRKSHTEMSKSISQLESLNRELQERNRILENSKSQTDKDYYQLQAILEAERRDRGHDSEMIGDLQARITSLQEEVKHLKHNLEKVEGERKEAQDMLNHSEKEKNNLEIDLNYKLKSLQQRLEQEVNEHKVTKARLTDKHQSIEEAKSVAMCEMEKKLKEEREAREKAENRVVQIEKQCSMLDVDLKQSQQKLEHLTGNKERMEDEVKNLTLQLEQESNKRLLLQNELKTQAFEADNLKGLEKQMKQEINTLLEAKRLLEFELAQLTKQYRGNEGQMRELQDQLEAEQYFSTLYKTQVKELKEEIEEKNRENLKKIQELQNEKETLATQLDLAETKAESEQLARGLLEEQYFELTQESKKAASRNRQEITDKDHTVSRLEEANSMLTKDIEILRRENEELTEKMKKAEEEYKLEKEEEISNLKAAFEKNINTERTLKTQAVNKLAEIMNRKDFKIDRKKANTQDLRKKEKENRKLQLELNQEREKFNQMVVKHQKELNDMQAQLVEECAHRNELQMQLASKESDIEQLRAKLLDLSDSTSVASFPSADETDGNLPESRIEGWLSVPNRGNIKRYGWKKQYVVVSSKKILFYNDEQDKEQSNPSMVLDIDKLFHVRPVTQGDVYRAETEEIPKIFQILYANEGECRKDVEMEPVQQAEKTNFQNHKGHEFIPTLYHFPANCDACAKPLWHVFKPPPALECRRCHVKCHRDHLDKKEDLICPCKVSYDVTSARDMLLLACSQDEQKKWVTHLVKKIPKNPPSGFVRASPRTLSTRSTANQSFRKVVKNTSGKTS
- assay: ROCK1 kinase binding affinity, DiscoverX KINOMEscan KdELECT
- particulars: equilibrium dissociation constant, 11-point 3-fold dilution series
Where a name gives a salt, the structure may show the parent alone.
// reported log10(Kd) per item
Answers are given as log10 of Kd in µM.

| compound | data-value |
| --- | --- |
| COc1ccc2c(c1)CN(c1nccc(-c3nccc(C#Cc4cc(F)c5[nH]ncc5c4)n3)n1)C2 [Ex. 6] | 1.46 |

[Q] Kindly indicate its recorded log10(Kd). Item: COc1cccc(C2CCN(c3nccc(-c4nccc(C#Cc5ccc6[nH]ncc6c5)n4)n3)C2)c1 (stereo not shown) [Ex. 70]
[A] 0.79

[Q] Identify log10(Kd) associated with the compound CCCN1CCN(c2nccc(-c3nccc(C#Cc4ccc5[nH]ncc5c4)n3)n2)CC1 [Ex. 54, trifluoroacetate]
[A] 0.66

[Q] Fill in reported log10(Kd) for this entry: COCCOc1cc2c(cn1)CN(c1nccc(-c3nccc(C#Cc4ccc5[nH]ncc5c4)n3)n1)C2 [Ex. 37]
[A] 0.76

[Q] Provide only the value of recorded log10(Kd) for C(#Cc1ccnc(-c2ccnc(N3Cc4ccccc4C3)n2)n1)c1ccc2[nH]ncc2c1 [Ex. 12]
[A] -0.60

[Q] Return reported log10(Kd). Input compound: O=C(O)c1ccc(C2CN(c3nccc(-c4nccc(C#Cc5ccc6[nH]ncc6c5)n4)n3)C2)cc1 [Ex. 51]
[A] 1.04

[Q] Provide only the value of recorded log10(Kd) for Brc1ccc2c(c1)CN(c1nccc(-c3nccc(C#Cc4ccc5[nH]ncc5c4)n3)n1)C2 [Ex. 30]
[A] -0.11

[Q] Look up and state reported log10(Kd) for CN(C)C(=O)COc1cc2c(cn1)CN(c1nccc(-c3nccc(C#Cc4ccc5[nH]ncc5c4)n3)n1)C2 [Ex. 38]
[A] 0.45

[Q] Tell me measured log10(Kd) for Fc1ccc(N2CCN(c3nccc(-c4nccc(C#Cc5ccc6[nH]ncc6c5)n4)n3)CC2)cc1 [Ex. 53] please.
[A] 0.67

[Q] Return log10(Kd) for the following compound: C(#Cc1ccnc(-c2ccnc(N3CCC(c4ccccc4)CC3)n2)n1)c1ccc2[nH]ncc2c1 [Ex. 55]
[A] 1.41

[Q] Indicate its recorded log10(Kd); the compound in question is C(#Cc1ccnc(-c2ccnc(N3CCN(c4ncc[nH]4)CC3)n2)n1)c1ccc2[nH]ncc2c1 [Ex. 58]
[A] 0.20

----------
- study-system: ROCK2 (Homo sapiens, UniProt O75116)
- Construct: purchased DiscoverX (KINOMEscan KdELECT service); host or cells: E. coli BL21-derived (T7 phage) or HEK-293
- Sequence (O75116 whole entry): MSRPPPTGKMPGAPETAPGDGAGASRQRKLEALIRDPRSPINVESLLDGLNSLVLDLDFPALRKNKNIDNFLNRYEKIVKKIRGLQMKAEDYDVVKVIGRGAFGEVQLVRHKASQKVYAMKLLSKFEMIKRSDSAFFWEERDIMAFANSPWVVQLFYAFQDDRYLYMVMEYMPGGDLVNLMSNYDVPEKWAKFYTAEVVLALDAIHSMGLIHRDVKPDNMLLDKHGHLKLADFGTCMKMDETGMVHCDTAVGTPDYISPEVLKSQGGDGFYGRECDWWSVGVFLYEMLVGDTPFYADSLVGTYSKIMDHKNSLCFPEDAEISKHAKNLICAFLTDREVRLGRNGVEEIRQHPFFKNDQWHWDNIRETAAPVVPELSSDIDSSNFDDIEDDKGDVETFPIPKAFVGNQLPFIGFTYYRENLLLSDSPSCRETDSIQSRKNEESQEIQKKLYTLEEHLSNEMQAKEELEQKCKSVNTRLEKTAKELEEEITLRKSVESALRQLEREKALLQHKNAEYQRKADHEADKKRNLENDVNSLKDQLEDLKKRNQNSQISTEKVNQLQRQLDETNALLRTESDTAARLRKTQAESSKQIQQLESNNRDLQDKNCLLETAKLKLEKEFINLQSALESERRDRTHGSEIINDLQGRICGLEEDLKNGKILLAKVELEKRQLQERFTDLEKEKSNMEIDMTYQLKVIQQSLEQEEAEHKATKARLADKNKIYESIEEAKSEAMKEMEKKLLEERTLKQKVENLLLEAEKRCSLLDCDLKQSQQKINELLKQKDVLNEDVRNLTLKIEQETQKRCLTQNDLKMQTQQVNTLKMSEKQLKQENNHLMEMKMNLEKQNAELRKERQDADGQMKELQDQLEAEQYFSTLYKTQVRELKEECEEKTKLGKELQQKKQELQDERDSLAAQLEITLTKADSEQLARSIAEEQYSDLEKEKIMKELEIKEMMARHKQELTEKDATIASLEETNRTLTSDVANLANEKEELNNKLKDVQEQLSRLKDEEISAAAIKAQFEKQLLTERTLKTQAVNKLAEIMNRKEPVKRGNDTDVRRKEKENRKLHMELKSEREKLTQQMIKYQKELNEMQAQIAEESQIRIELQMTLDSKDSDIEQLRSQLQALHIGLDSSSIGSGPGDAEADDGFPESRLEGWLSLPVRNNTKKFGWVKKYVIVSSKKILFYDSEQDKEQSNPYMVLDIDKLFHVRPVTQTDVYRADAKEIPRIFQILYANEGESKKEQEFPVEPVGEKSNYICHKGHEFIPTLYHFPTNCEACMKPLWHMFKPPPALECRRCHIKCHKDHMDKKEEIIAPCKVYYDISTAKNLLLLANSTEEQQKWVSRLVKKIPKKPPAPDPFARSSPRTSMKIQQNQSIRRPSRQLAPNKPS
- assay: ROCK2 kinase binding affinity, DiscoverX KINOMEscan KdELECT
- particulars: ROCK2 over ROCK1, from Kd values; N/C = not calculated
- Method: 1. ROCK1 and ROCK2 kinase assays: The ROCK1 and ROCK2 kinase binding affinities of compounds in this invention were determined by DiscoverX's KINOMEscan™ KdELECT technology (https://www.discoverx.com/kinomescan-elect-kinase-screening-and-profiling-services): Kinase-tagged T7 phage strains were prepared in an E. coli host derived from the BL21 strain. […] Kds were determined using an 11-point 3-fold compound dilution series with three DMSO control points. […]
Counter-ions that a name gives are not always drawn.
Entries get a class label from measured ROCK 2 Selectivity. See ranges: low bin (below 40), mid bin (40 to below 90), high bin (90 or more)

| molecule | cat |
| --- | --- |
| C(#Cc1ccnc(-c2ccnc(N3CCn4cnnc4C3)n2)n1)c1ccc2[nH]ncc2c1 | low bin |
| COCCOc1ccc2c(c1)CN(c1nccc(-c3nccc(C#Cc4ccc5[nH]ncc5c4)n3)n1)C2 | mid bin |

[Q] Hello team, could you let me know which band the following molecule falls into: COCCN1CCN(c2cc3c(cn2)CN(c2nccc(-c4nccc(C#Cc5ccc6[nH]ncc6c5)n4)n2)C3)CC1 [Ex. 36, trifluoroacetate salt]
[A] low bin

[Q] Form field 'band' for COc1ccc2c(c1)CN(c1nccc(-c3nccc(C#Cc4cc(F)c5[nH]ncc5c4)n3)n1)C2
[A] high bin

----------
- study-system: ROCK2 (Homo sapiens)
- Construct: purchased DiscoverX (KINOMEscan KdELECT service); host or cells: E. coli BL21-derived (T7 phage) or HEK-293
- assay: ROCK2 kinase binding affinity, DiscoverX KINOMEscan KdELECT
- particulars: equilibrium dissociation constant, 11-point 3-fold dilution series; read-out: Kd (μM) ROCK2
Counter-ions that a name gives are not always drawn.
Kd reference

Some compounds with known Kd results, for comparison:
| compound | study-system | measured-metric | data-value |
| --- | --- | --- | --- |
| Oc1ccc(N2CCN(c3nccc(-c4nccc(C#Cc5ccc6[nH]ncc6c5)n4)n3)CC2)cc1 | ROCK2 (Homo sapiens) | Kd | 0.11 µM |
| COc1ccc2c(c1)CN(c1nccc(-c3nccc(C#Cc4ccc(C#N)cc4)n3)n1)C2 | ROCK2 (Homo sapiens) | Kd | > 30 µM |
| O=C(COc1ccc2c(c1)CN(c1nccc(-c3nccc(C#Cc4ccc5[nH]ncc5c4)n3)n1)C2)NC1CC1 [Ex. 46, trifluoroacetate] | ROCK2 (Homo sapiens) | Kd | 0.0023 µM |

[Q] Tell us which Kd value is on record for Fc1ccc2c(c1)CN(c1nccc(-c3nccc(C#Cc4ccc5[nH]ncc5c4)n3)n1)C2
[A] 0.0079 µM

[Q] Dear colleague, please send me the reported Kd for Cc1nnc2n1CCN(c1nccc(-c3nccc(C#Cc4ccc5[nH]ncc5c4)n3)n1)C2 when you can.
[A] 0.33 µM

[Q] Using known records, supply Kd for CC1CN(c2ccc3c(c2)CN(c2nccc(-c4nccc(C#Cc5ccc6[nH]ncc6c5)n4)n2)C3)CCO1 (centres unmarked)
[A] 0.024 µM

[Q] Dear colleague, please send me the reported Kd for C(#Cc1ccnc(-c2ccnc(N3CCC(c4ccccc4)CC3)n2)n1)c1ccc2[nH]ncc2c1 when you can.
[A] 0.9 µM

[Q] Assign Kd to the following record: COc1ccc2c(c1)CN(c1nccc(-c3nccc(C#Cc4ccc5[nH]nc(F)c5c4)n3)n1)C2
[A] 0.02 µM

[Q] Tell me its Kd given Fc1ccc2c(c1)CN(c1nccc(-c3nccc(C#Cc4ccc5[nH]nc(F)c5c4)n3)n1)C2 as the entry.
[A] 0.073 µM

[Q] Give recorded Kd. C(#Cc1ccnc(-c2ccnc(N3Cc4ccccc4C3)n2)n1)c1ccc2[nH]ncc2c1
[A] 0.0018 µM

[Q] Specify reported Kd for the compound shown: CN(C)CCOc1ccc2c(c1)CN(c1nccc(-c3nccc(C#Cc4ccc5[nH]ncc5c4)n3)n1)C2
[A] 0.026 µM

[Q] Please report Kd for the following compound: CCCN1CCN(c2nccc(-c3nccc(C#Cc4ccc5[nH]ncc5c4)n3)n2)CC1 [Ex. 54, trifluoroacetate]
[A] 0.45 µM

----------
- study-system: ROCK2 (Homo sapiens, UniProt O75116)
- Construct: purchased DiscoverX (KINOMEscan KdELECT service); host or cells: E. coli BL21-derived (T7 phage) or HEK-293
- assay: ROCK2 kinase binding affinity, DiscoverX KINOMEscan KdELECT
- particulars: equilibrium dissociation constant, 11-point 3-fold dilution series; read-out: Kd (μM) ROCK2
Where a name gives a salt, the structure may show the parent alone.
Recorded Kd for the following molecules
Give your result in µM as a bare value.

| molecule | Kd, µM |
| --- | --- |
| Fc1ccc(C2CCN(c3nccc(-c4nccc(C#Cc5ccc6[nH]ncc6c5)n4)n3)CC2)cc1 | 0.73 |

[Q] For N#Cc1ccc(C2CN(c3nccc(-c4nccc(C#Cc5ccc6[nH]ncc6c5)n4)n3)C2)cc1 [Ex. 50, trifluoroacetate] , write its Kd.
[A] 0.12

----------
Below, each entry is listed with its recorded Kd.
- study-system: ROCK1 (Homo sapiens)
- Construct: purchased DiscoverX (KINOMEscan KdELECT service); host or cells: E. coli BL21-derived (T7 phage) or HEK-293
- assay: ROCK1 kinase binding affinity, DiscoverX KINOMEscan KdELECT
- particulars: equilibrium dissociation constant, 11-point 3-fold dilution series
Where a name gives a salt, the structure may show the parent alone.
The answer is to be given in µM; state only the numeric part.

| compound | study-system | unit-string | data-value |
| --- | --- | --- | --- |
| CNC(=O)COc1ccc2c(c1)CN(c1nccc(-c3nccc(C#Cc4ccc5[nH]ncc5c4)n3)n1)C2 | ROCK1 (Homo sapiens) | µM | 0.075 |
| FC(F)(F)c1ccc2c(c1)CN(c1nccc(-c3nccc(C#Cc4ccc5[nH]ncc5c4)n3)n1)C2 [Ex. 45, trifluoroacetate] | ROCK1 (Homo sapiens) | µM | 0.1 |
| Clc1ccc(N2CCN(c3nccc(-c4nccc(C#Cc5ccc6[nH]ncc6c5)n4)n3)CC2)cc1 | ROCK1 (Homo sapiens) | µM | 22 |

Now examine the next entry.
[Q] Give a short answer stating reported Kd for Fc1ccc(C2CCN(c3nccc(-c4nccc(C#Cc5ccc6[nH]ncc6c5)n4)n3)CC2)cc1 .
[A] 26

Origin of measurements: patent US20220281841A1
